# Target Or System: UniProt P31421
# Method Description: mGlu2 Ca2+ flux assay
# Study Conditions: Gα15 HEK293 cells stably expressing rat mGlu2; glutamate EC80; >10,000 = no plateau; >30,000 = no measurable activity
Documented IC50 across a set of compounds
Property Measured: IC50 (nM)

{"columns": ["Compound", "Property Measured", "Bound Operator", "Result Number"],
 "data": [
  ["NC(=O)c1cc(-c2ccc(F)cc2)c(OCCOc2ccnc(C(F)(F)F)c2)cn1", "IC50", "=", 242],
  ["N#Cc1cc(-c2ccc(F)cc2)c(OCCCOc2ccnc(C(F)(F)F)c2)cn1", "IC50", ">", 30000],
  ["Cc1ncc(OC(C)COc2cnc(C(N)=O)cc2-c2ccc(F)cc2)cn1 (stereo not drawn)", "IC50", ">", 10000],
  ["NC(=O)c1cc(-c2ccc(C(F)(F)F)nc2)c(OCc2cc(F)cc(F)c2)cn1", "IC50", ">", 10000],
  ["N#Cc1cccc(OCCOc2cnc(C(N)=O)cc2-c2ccc(F)cc2)c1F", "IC50", "=", 528],
  ["Cn1ccc(COc2cnc(C(N)=O)cc2-c2ccc(F)cc2)n1", "IC50", "=", 66],
  ["N#Cc1cc(-c2ccc(F)cc2)c(NCC2CCOCC2)cn1", "IC50", "=", 6850],
  ["N#Cc1ccc(F)c(COc2cnc(C(N)=O)cc2-c2ccc(F)cc2)c1", "IC50", "=", 313],
  ["Cc1ncc(OCCOc2cnc(C#N)cc2-c2ccc(F)cc2)cn1", "IC50", ">", 10000],
  ["Cc1ccc(OCCOc2cnc(C(N)=O)cc2-c2ccc(F)cc2)cn1", "IC50", "=", 738],
  ["NC(=O)c1cc(-c2ccc(C(F)(F)F)nc2)c(OCc2cccnc2)cn1", "IC50", ">", 30000],
  ["NC(=O)c1cc(-c2ccc(F)cc2)c(OCc2ccc3nccn3c2)cn1", "IC50", "=", 129],
  ["N#Cc1cc(-c2ccc(F)cc2)c(OCc2cncc(Cl)c2)cn1", "IC50", ">", 30000],
  ["NC(=O)c1cc(-c2ccc(F)cc2)c(OCCOc2ccccc2Br)cn1", "IC50", ">", 30000],
  ["NC(=O)c1cc(-c2ccc(F)cc2)c(OCc2cc(F)cc(Br)c2)cn1", "IC50", "=", 1470],
  ["COc1ccc(-c2cc(C(N)=O)ncc2OCc2cccnc2)c(F)c1", "IC50", "=", 39],
  ["CC(CN1CCOCC1)Nc1cnc(C#N)cc1-c1ccc(F)cc1 (stereo not drawn)", "IC50", ">", 10000],
  ["NC(=O)c1cc(-c2ccc(F)cc2)c(OCCOc2ccc(F)nc2)cn1", "IC50", "=", 502]
]}

====

# Target Or System: rat mGlu2 (Rattus norvegicus (Rat), UniProt P31421)
# Sequence (P31421 19-872): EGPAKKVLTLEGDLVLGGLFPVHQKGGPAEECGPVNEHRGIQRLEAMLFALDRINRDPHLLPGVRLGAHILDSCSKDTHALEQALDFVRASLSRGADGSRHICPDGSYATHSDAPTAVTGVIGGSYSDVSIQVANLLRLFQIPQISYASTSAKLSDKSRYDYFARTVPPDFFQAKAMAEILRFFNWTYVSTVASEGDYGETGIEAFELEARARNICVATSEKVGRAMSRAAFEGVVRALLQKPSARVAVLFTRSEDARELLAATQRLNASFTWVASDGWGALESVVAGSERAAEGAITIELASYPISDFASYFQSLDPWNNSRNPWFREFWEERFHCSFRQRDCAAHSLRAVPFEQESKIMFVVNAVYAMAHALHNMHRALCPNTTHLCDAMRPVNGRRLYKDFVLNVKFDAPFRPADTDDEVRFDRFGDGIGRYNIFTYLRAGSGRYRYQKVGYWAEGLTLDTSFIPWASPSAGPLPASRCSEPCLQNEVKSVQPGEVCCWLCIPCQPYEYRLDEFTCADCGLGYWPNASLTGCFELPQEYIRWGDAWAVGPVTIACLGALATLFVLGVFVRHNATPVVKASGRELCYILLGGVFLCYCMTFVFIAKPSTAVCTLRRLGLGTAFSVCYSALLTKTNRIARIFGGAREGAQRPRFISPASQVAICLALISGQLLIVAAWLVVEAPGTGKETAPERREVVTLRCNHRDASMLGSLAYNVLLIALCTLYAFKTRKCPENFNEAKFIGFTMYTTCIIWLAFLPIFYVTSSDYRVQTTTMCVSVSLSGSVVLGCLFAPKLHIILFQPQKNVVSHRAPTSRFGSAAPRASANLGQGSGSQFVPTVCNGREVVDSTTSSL
# Method Description: mGlu2 Ca2+ flux assay
# Study Conditions: Gα15 HEK293 cells stably expressing rat mGlu2; glutamate EC80; >10,000 = no plateau; >30,000 = no measurable activity
pIC50: −log10 of the molar value.
Documented pIC50 across a set of compounds
Property Measured: pIC50

{"columns": ["Compound", "Property Measured", "Bound Operator", "Result Number"],
 "data": [
  ["Cc1cc(COc2cnc(C#N)cc2-c2ccc(F)cc2)ccn1 [Compound 18]", "pIC50", "=", 5.57],
  ["C[C@@H]1CN(CCOc2cnc(C#N)cc2-c2ccc(F)cc2)C[C@H](C)O1 [Compound 70]", "pIC50", "<", 4.52],
  ["COc1cc(COc2cnc(C(N)=O)cc2-c2ccc(F)cc2)ccn1 [Compound 46]", "pIC50", "=", 6.69],
  ["CC(CN1CCOCC1)Nc1cnc(C(N)=O)cc1-c1ccc(F)cc1 (stereo not drawn) [Compound 134]", "pIC50", "=", 5.57],
  ["Cc1ccc(COc2cnc(C(N)=O)cc2-c2cnn(C)c2)cn1 [Compound 85]", "pIC50", "<", 5.00],
  ["NC(=O)c1cc(-c2ccc(F)cc2)c(OCCOc2ccc(F)cc2)cn1 [Compound 107]", "pIC50", "=", 5.07],
  ["CC(COc1ccnc(C(F)(F)F)c1)Oc1cnc(C(N)=O)cc1-c1ccc(F)cc1 (stereo not drawn) [Compound 120]", "pIC50", "=", 6.32],
  ["NC(=O)c1cc(-c2ccc(F)cc2)c(OCCOc2ccnc(F)c2)cn1 [Compound 117]", "pIC50", "=", 6.21],
  ["N#Cc1cc(-c2ccc(F)cc2)c(OCc2ccc3nccn3c2)cn1 [Compound 21]", "pIC50", "=", 5.46]
]}
